# experiment-summary: Tmax in Sprague-Dawley rat at 21 mg/kg, ip and measured upto 24 hrs by LC-MS analysis
# Type: ADME, organism-based
# experimental-context: in vivo
measure: Tmax

[[record]]
compound = "CC(C)c1ccc(-c2cccc(S(=O)(=O)N3CCCC(c4cccc(OC(C)(C)C(=O)NS(=O)(=O)c5ccc(C(F)(F)F)cc5)c4)C3)c2)cc1 (stereo unspecified)"
measure = "Tmax"
value_reported = "30 min"


###

# study-target: beta-catenin-B-cell lymphoma 9 protein complex (Homo sapiens)
# experiment-summary: Inhibition of beta-catenin/BCL9 protein-protein interaction in Wnt-independent human RKO cells assessed as reduction in Axin2 expression level by qRT-PCR assay
# Type: cell-based
pIC50: −log10 of the molar value.
measure: pIC50

[[record]]
cpd_smiles = "O=C1[C@H](Cc2ccc(O)cc2)N2C(=O)CCN(C(=O)NCc3ccccc3)[C@H]2CN1Cc1cccc2ccccc12"
value_reported = 4.58


###

# study-target: beta-catenin-B-cell lymphoma 9 protein complex (Homo sapiens, UniProt P35222)
# experiment-summary: Inhibition of N-terminal His6-tagged full-length recombinant beta-catenin (1 to 781 residues) (unknown origin) expressed in Escherichia coli BL21 DE3/N-terminal FAM tagged BCL9 HD2(350 to 375 residues) (unknown origin) protein-protein interaction assessed as inhibition constant incubated for 3 hrs by competitive fluorescence polarization assay
pIC50: −log10 of the molar value.
The molecules listed here are annotated with their pIC50.
measure: pIC50

[[record]]
molecule = "CC(C)(Oc1cccc(C2CCCN(S(=O)(=O)c3cccc(-c4ccc(F)c(F)c4)c3)C2)c1)C(=O)O (stereo not drawn)"
measure = "pIC50"
modifier = "<"
value_reported = 5.00

[[record]]
molecule = "COC(=O)C(C)(C)Oc1cccc(C2CCCN(C(=O)OCc3ccc(C(C)C)cc3)C2)c1 (stereo not drawn)"
measure = "pIC50"
modifier = "="
value_reported = 5.28

[[record]]
molecule = "CC(C)(Oc1cccc(C2CCCN(C(=O)OCC3CCCCC3)C2)c1)C(=O)O (stereo not drawn)"
measure = "pIC50"
modifier = "="
value_reported = 5.41

[[record]]
molecule = "CC(C)c1cccc(-c2cccc(S(=O)(=O)N3CCCC(c4cccc(OC(C)(C)C(=O)O)c4)C3)c2)c1 (stereo not drawn)"
measure = "pIC50"
modifier = "="
value_reported = 5.37

[[record]]
molecule = "CC(C)(Oc1cccc(C2CCCN(S(=O)(=O)c3cccc(C4CCCCC4)c3)C2)c1)C(=O)O (stereo not drawn)"
measure = "pIC50"
modifier = "<"
value_reported = 5.00

[[record]]
molecule = "CC(C)c1ccc(-c2cccc(S(=O)(=O)N3CCCC(c4cccc(OC(C)(C)C(=O)O)c4)C3)c2)cc1 (stereo not drawn)"
measure = "pIC50"
modifier = "="
value_reported = 5.80

[[record]]
molecule = "CC(=O)Nc1ccc(S(=O)(=O)NC(=O)C(C)(C)Oc2cccc(C3CCCN(S(=O)(=O)c4cccc(-c5ccc(C(C)C)cc5)c4)C3)c2)cc1 (stereo not drawn)"
measure = "pIC50"
modifier = "="
value_reported = 6.05

[[record]]
molecule = "Cc1ccc(COC(=O)N2CCCC(c3cccc(OC(C)(C)C(=O)O)c3)C2)cc1C (stereo not drawn)"
measure = "pIC50"
modifier = "="
value_reported = 5.38


###

# study-target: beta-catenin-B-cell lymphoma 9 protein complex (Homo sapiens)
# experiment-summary: Inhibition of beta-catenin (unknown origin)/human BCL9 (350 to 375 residues) protein-protein interaction assessed as inhibition constant by AlphaScreen assay
# Type: protein-complex assay
measure: Ki

[[record]]
cpd_smiles = "O=C(Nc1ccc(O[C@@H]2CCNC2)c(-c2ccc(F)cc2)c1)c1ccc(O[C@H]2CCNC2)c(-c2ccc(F)c(F)c2)c1"
value_reported = "2100 nM"


###

In this section, each of the compounds is paired with its reported IC50.
# study-target: beta-catenin-B-cell lymphoma 9 protein complex (Homo sapiens)
# experiment-summary: Inhibition of N-terminal His6-tagged full-length recombinant beta-catenin (1 to 781 residues) (unknown origin) expressed in Escherichia coli BL21 DE3/N-terminal FAM tagged BCL9 HD2(350 to 375 residues) (unknown origin) protein-protein interaction assessed as inhibition constant incubated for 3 hrs by competitive fluorescence polarization assay
measure: IC50 (µM)

[[record]]
compound = "CC(C)(Oc1cccc(C2CCCN(C(=O)OCc3ccc(F)cc3F)C2)c1)C(=O)O (centres undefined)"
study_target = "beta-catenin-B-cell lymphoma 9 protein complex (Homo sapiens)"
measure = "IC50"
measure_unit = "µM"
value_reported = 5.19

[[record]]
compound = "CC(C)c1ccc(-c2cccc(S(=O)(=O)N3CCCC(c4cccc(OC(C)(C)C(=O)NS(=O)(=O)c5ccc(C(F)(F)F)cc5Cl)c4)C3)c2)cc1 (centres undefined)"
study_target = "beta-catenin-B-cell lymphoma 9 protein complex (Homo sapiens)"
measure = "IC50"
measure_unit = "µM"
value_reported = 1.18

[[record]]
compound = "COc1ccc(COC(=O)N2CCCC(c3cccc(OC(C)(C)C(=O)O)c3)C2)cc1OC (centres undefined)"
study_target = "beta-catenin-B-cell lymphoma 9 protein complex (Homo sapiens)"
measure = "IC50"
measure_unit = "µM"
value_reported = 6.8

[[record]]
compound = "CC(C)c1ccc(CNC(=O)N2CCCC(c3cccc(OC(C)(C)C(=O)O)c3)C2)cc1 (centres undefined)"
study_target = "beta-catenin-B-cell lymphoma 9 protein complex (Homo sapiens)"
measure = "IC50"
measure_unit = "µM"
value_reported = 8.62

[[record]]
compound = "CC(C)c1ccc(-c2cccc(S(=O)(=O)N3CCCC(c4cccc(OC(C)(C)C(=O)NS(=O)(=O)c5ccccc5)c4)C3)c2)cc1 (centres undefined)"
study_target = "beta-catenin-B-cell lymphoma 9 protein complex (Homo sapiens)"
measure = "IC50"
measure_unit = "µM"
value_reported = 1.18

[[record]]
compound = "CC(C)(Oc1cccc(C2CCCN(C(=O)OCc3ccc(F)c(F)c3)C2)c1)C(=O)O (centres undefined)"
study_target = "beta-catenin-B-cell lymphoma 9 protein complex (Homo sapiens)"
measure = "IC50"
measure_unit = "µM"
value_reported = 4.32

[[record]]
compound = "CC(C)c1ccc(-c2cccc(S(=O)(=O)N3CCCC(c4cccc(OC(C)(C)C(=O)NS(=O)(=O)c5ccc(OC(F)(F)F)cc5)c4)C3)c2)cc1 (centres undefined)"
study_target = "beta-catenin-B-cell lymphoma 9 protein complex (Homo sapiens)"
measure = "IC50"
measure_unit = "µM"
value_reported = 1

[[record]]
compound = "CC(C)c1ccc(COC(=O)N2CCC(c3cccc(OC(C)(C)C(=O)O)c3)CC2)cc1"
study_target = "beta-catenin-B-cell lymphoma 9 protein complex (Homo sapiens)"
measure = "IC50"
measure_unit = "µM"
value_reported = 4.86

[[record]]
compound = "CC(C)c1ccc(-c2cccc(S(=O)(=O)N3CCCC(c4cccc(OC(C)(C)C(=O)NS(=O)(=O)c5cccc(C#N)c5)c4)C3)c2)cc1 (centres undefined)"
study_target = "beta-catenin-B-cell lymphoma 9 protein complex (Homo sapiens)"
measure = "IC50"
measure_unit = "µM"
value_reported = 1.27


###

# study-target: beta-catenin-B-cell lymphoma 9 protein complex (Homo sapiens)
# Sequence (P35222 whole entry): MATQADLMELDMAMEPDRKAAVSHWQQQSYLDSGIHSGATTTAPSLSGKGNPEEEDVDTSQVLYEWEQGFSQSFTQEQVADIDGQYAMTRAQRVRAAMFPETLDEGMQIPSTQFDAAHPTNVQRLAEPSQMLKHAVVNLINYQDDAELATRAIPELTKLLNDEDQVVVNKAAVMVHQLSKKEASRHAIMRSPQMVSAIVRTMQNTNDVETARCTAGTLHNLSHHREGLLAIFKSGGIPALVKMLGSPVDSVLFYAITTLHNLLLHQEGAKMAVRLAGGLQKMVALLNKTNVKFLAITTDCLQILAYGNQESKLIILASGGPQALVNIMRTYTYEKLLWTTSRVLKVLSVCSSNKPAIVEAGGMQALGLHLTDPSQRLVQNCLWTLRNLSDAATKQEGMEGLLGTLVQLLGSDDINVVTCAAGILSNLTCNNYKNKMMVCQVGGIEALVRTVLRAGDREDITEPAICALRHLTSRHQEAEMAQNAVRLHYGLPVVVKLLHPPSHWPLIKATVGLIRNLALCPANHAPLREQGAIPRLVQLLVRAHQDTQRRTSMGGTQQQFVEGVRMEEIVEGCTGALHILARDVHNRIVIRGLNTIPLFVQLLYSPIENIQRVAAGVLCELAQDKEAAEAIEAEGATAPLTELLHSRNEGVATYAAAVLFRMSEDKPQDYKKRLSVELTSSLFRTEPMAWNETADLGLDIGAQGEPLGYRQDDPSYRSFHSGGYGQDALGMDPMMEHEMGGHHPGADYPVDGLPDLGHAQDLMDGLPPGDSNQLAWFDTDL
# Sequence (O00512 whole entry): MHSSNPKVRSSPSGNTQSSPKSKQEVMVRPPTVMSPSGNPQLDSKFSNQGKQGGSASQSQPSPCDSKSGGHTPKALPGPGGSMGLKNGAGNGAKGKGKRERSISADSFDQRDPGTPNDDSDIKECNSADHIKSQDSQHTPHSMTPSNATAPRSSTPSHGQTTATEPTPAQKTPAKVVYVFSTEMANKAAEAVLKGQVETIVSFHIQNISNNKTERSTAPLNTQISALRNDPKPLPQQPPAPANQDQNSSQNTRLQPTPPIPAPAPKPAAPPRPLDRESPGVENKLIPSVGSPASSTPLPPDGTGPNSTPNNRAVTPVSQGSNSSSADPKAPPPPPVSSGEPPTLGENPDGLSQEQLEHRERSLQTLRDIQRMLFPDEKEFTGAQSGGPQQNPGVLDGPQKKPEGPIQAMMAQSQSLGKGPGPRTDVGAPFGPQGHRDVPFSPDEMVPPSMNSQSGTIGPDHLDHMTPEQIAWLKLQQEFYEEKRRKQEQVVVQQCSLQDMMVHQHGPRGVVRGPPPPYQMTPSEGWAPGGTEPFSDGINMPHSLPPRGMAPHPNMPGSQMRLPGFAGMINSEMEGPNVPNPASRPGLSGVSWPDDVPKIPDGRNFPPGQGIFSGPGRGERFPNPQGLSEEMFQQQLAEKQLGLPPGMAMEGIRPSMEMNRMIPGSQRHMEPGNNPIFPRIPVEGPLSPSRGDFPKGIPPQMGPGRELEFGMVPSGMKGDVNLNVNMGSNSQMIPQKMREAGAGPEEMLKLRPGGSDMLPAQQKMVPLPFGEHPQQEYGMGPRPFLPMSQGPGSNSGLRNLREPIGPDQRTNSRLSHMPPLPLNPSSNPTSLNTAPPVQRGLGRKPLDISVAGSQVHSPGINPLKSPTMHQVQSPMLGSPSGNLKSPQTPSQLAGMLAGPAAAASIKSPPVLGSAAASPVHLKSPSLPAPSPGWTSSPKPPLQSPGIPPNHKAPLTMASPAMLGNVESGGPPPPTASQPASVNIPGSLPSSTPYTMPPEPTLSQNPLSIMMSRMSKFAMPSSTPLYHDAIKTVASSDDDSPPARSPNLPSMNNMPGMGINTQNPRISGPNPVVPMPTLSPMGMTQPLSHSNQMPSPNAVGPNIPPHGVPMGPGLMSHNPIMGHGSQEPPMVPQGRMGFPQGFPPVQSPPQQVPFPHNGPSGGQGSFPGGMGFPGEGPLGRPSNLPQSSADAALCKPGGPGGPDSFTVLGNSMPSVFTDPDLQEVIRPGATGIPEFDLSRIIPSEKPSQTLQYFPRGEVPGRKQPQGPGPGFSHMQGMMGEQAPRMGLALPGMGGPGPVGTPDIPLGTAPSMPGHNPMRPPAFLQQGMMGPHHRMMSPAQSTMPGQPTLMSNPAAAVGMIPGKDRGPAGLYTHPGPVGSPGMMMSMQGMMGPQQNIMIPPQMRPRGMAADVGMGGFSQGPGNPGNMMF
# experiment-summary: Inhibition of beta-catenin/BCL9 protein-protein interaction in Wnt-dependent human HCT-116 cells assessed as reduction in Axin2 expression level by qRT-PCR assay
# Type: cell-based
measure: IC50 (nM)

[[record]]
molecule = "CC(C)(Oc1cccc(C2CCCN(S(=O)(=O)c3cccc(-c4ccc(C(C)(C)C)cc4)c3)C2)c1)C(=O)O (stereo not drawn)"
modifier = "="
value_reported = 1310

[[record]]
molecule = "CC(C)c1ccc(-c2cccc(S(=O)(=O)N3CCCC(c4cccc(OC(C)(C)C(=O)NS(=O)(=O)c5ccc(OC(F)(F)F)cc5)c4)C3)c2)cc1 (stereo not drawn)"
modifier = "="
value_reported = 1190

[[record]]
molecule = "CC(C)(Oc1cccc(C2CCCN(C(=O)OCC3CCCCC3)C2)c1)C(=O)O (stereo not drawn)"
modifier = ">"
value_reported = 10000

[[record]]
molecule = "CC(C)c1ccc(-c2cccc(S(=O)(=O)N3CCCC(c4cccc(OC(C)(C)C(=O)NS(=O)(=O)c5cccc(C#N)c5)c4)C3)c2)cc1 (stereo not drawn)"
modifier = "="
value_reported = 1130

[[record]]
molecule = "CC(C)c1ccc(-c2cccc(S(=O)(=O)N3CCCC(c4cccc(OC(C)(C)C(=O)NCc5ccccc5)c4)C3)c2)cc1 (stereo not drawn)"
modifier = "="
value_reported = 10000

[[record]]
molecule = "CC(C)(Oc1cccc(C2CCCN(S(=O)(=O)c3cccc(-c4ccc5ccsc5c4)c3)C2)c1)C(=O)O (stereo not drawn)"
modifier = "="
value_reported = 3580

[[record]]
molecule = "CC(C)c1ccc(-c2cccc(S(=O)(=O)N3CCCC(c4cccc(OC(C)(C)C(=O)NS(=O)(=O)c5ccc(C(F)(F)F)cc5Cl)c4)C3)c2)cc1 (stereo not drawn)"
modifier = "="
value_reported = 1360

[[record]]
molecule = "CC(C)c1ccc(-c2cccc(S(=O)(=O)N3CCCC(c4cccc(OC(C)(C)C(=O)NS(=O)(=O)c5ccccc5)c4)C3)c2)cc1 (stereo not drawn)"
modifier = "="
value_reported = 1100

[[record]]
molecule = "CC(=O)Nc1ccc(S(=O)(=O)NC(=O)C(C)(C)Oc2cccc(C3CCCN(S(=O)(=O)c4cccc(-c5ccc(C(C)C)cc5)c4)C3)c2)cc1 (stereo not drawn)"
modifier = "="
value_reported = 2930

[[record]]
molecule = "CC(C)c1ccc(-c2cccc(S(=O)(=O)N3CCCC(c4cccc(OC(C)(C)C(=O)NS(=O)(=O)c5cccc(C(F)(F)F)c5)c4)C3)c2)cc1 (stereo not drawn)"
modifier = "="
value_reported = 1330

[[record]]
molecule = "CC(C)c1ccc(-c2cccc(S(=O)(=O)N3CCCC(c4cccc(OC(C)(C)C(=O)O)c4)C3)c2)cc1 (stereo not drawn)"
modifier = "="
value_reported = 2260

[[record]]
molecule = "O=C1[C@H](Cc2ccc(O)cc2)N2C(=O)CCN(C(=O)NCc3ccccc3)[C@H]2CN1Cc1cccc2ccccc12"
modifier = "="
value_reported = 2690

[[record]]
molecule = "CC(C)c1ccc(-c2cccc(S(=O)(=O)N3CCCC(c4cccc(OC(C)(C)C(=O)NS(=O)(=O)c5ccc(C#N)cc5)c4)C3)c2)cc1 (stereo not drawn)"
modifier = "="
value_reported = 1490


From: ChEMBL document CHEMBL5316313
